Target: B. anthracis NADs (Bacillus anthracis)
Type: biochemical
Details: read-out: IC50
Measured log10(IC50) values are reported for all entries that follow.
Scale: log10; quantity: IC50; unit before log: µM

Study these solved cases before continuing.
compound | log10(IC50)
O=C1C=C(Nc2ccccc2C(=O)O)C(=O)C=C1Nc1ccccc1C(=O)O [Compound 5589] | 2.14
O=[N+]([O-])c1ccc(O)c(/C=N/c2cccc(O)c2)c1 [Compound 5660] | 1.35
O=C(Nc1ccc2oc(-c3cc(Br)ccc3Cl)nc2c1)c1cccc([N+](=O)[O-])c1 [Compound 5798] | 1.79
N/C(=N\OC(=O)c1ccc(Cl)c(Cl)c1)c1cccc(CSc2ccccn2)c1 [Compound 5775] | 2.46
COc1ccc(NC(=O)Nc2ccc(Oc3ncnc4cc(Cl)ccc34)nc2)cc1OC1CCCC1 [Compound 5764] | 1.99

Recorded log10(IC50) for O=C(Cn1cc(/C=C/c2[nH]c(=O)[nH]c(=O)c2[N+](=O)[O-])c2ccccc21)Nc1ccc(F)cc1 [Compound 5615] , please?
1.74

Recorded log10(IC50) for O=C(Nc1cccc(/N=C/c2cc([N+](=O)[O-])ccc2O)c1)c1ccc(Cl)cc1Cl [Compound 5691] , please?
2.03

Recorded log10(IC50) for O=C(Nc1ccc(/N=N/c2ccccc2)cc1)c1ccc([N+](=O)[O-])cc1 [Compound 5792] , please?
1.88

Recorded log10(IC50) for CCOC(=O)C1=C(Nc2cccc3ccccc23)S/C(=C\c2ccc([N+](=O)[O-])cc2)C1=O [Compound 5597] , please?
1.94

----------
Target: B. anthracis NADs (Bacillus anthracis)
Assay type: biochemical
Settings: read-out: NADs IC50
observationType: IC50 (µM)
// units = µM; emit number, no label

Study these solved cases before continuing.
testSmiles | IC50 / µM
COc1ccc(NC(=O)Nc2ccc(Oc3ncnc4cc(Cl)ccc34)nc2)cc1OC1CCCC1 | 97
O=C(Nc1ccc([N+](=O)[O-])cc1)Nc1ccc(S(=O)(=O)Nc2ccc(Cl)c(Cl)c2)cc1 | 10
O=C1C=C(Nc2ccccc2C(=O)O)C(=O)C=C1Nc1ccccc1C(=O)O | 118
O=C(Nc1cccc(C(=O)Nc2cccc3ccccc23)c1)c1cccc([N+](=O)[O-])c1 | 225

State its IC50 on B. anthracis NADs (Bacillus anthracis): O=C(Nc1cccc(/N=C/c2cc([N+](=O)[O-])ccc2O)c1)c1cccc(Br)c1
99

State its IC50 on B. anthracis NADs (Bacillus anthracis): O=C(Nc1ccccc1)Nc1ccc(NC(=O)c2ccc(NC(=O)Nc3ccccc3)cc2)cc1
79

State its IC50 on B. anthracis NADs (Bacillus anthracis): O=C(NC(=S)Nc1cc(-c2nc3ccccc3[nH]2)ccc1Cl)c1ccccc1[N+](=O)[O-]
243

State its IC50 on B. anthracis NADs (Bacillus anthracis): O=C(Nc1ccc([N+](=O)[O-])cc1)c1ccc(-c2nnc(-c3ccccc3)o2)cc1
146

State its IC50 on B. anthracis NADs (Bacillus anthracis): O=C(Nc1ccc(/N=N/c2ccccc2)cc1)c1ccc([N+](=O)[O-])cc1
76

State its IC50 on B. anthracis NADs (Bacillus anthracis): COc1ccccc1NC(=O)NC(=O)c1ccc(-c2csnn2)cc1
235

State its IC50 on B. anthracis NADs (Bacillus anthracis): O=C(Nc1ccc(Cc2ccc(NC(=O)c3ccc4c(c3)OCO4)cc2)cc1)c1ccc2c(c1)OCO2
65.7

----------
Molecular target: B. anthracis NADs (Bacillus anthracis, UniProt Q81RP3)
Sequence (Q81RP3 whole entry, looked up): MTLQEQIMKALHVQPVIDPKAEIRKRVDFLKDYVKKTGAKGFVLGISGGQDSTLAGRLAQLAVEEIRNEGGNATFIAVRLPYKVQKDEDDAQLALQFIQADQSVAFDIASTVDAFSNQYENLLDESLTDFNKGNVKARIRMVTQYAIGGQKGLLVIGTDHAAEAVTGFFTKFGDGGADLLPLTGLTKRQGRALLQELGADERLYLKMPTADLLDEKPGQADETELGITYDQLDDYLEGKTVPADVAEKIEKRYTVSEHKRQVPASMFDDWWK
Type: biochemical
Details: read-out: NADs IC50
observationType: IC50 (µM)
// units = µM; emit number, no label

compound | targetOrSystem | unitDescriptor | IC50
NC(=O)c1ccc(/N=C/c2cc([N+](=O)[O-])ccc2Cl)cc1 [Compound 5679] | B. anthracis NADs (Bacillus anthracis, UniProt Q81RP3) | µM | 262
COc1ccc(CCNC(=O)NCc2cccc(CNC(=O)NCCc3ccc(OC)cc3)c2)cc1 [Compound 5609] | B. anthracis NADs (Bacillus anthracis, UniProt Q81RP3) | µM | 70

Here is the next item to consider.
Recorded IC50 for COc1ccccc1NC(=O)COc1ccc(/C=C(/C#N)c2nc3ccccc3[nH]2)cc1 [Compound 5822] , please?
178

Reference source: patent US20110275635A1
